# protocol details: inhibitors of Clostridioides difficile proliferation – 4-point retest, confirmation (AID 1224921);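 further: plate controls were DMSO wells for no effect and levofloxacin 16 µg/mL wells for full effect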
# run parameters: Clostridioides difficile clinical isolate growth, OD600, 24 h, stronger effect = lower value; at 30 µM unless noted
Screen size: about 1,400 compounds; about 350 (25%) were called active. Inconclusive results (about 2%) are left out. A selection follows. Potency and affinity values are given separately.
quantity measured: max activity

given smiles	max activity
O=C(Nc1cc(F)ccc1F)N[C@H]1CC[C@H](CC(=O)N2CCc3ccccc3C2)O[C@@H]1CO	-10.9% [at 8 µM] (inactive)
COc1ccccc1C#Cc1ccc([C@@H]2[C@@H](C#N)N(C(=O)C3CCCCC3)[C@H]2CO)cc1	30.9% (inactive)
CC(=O)N(C)C[C@@H]1Oc2ncc(C#Cc3ccc(F)cc3)cc2C(=O)N([C@H](C)CO)C[C@H]1C	21.7% (inactive)
COc1ccc(NC(=O)Nc2ccc3c(c2)[C@H]2C[C@H](CC(=O)NCc4ccccc4F)O[C@@H](CO)[C@H]2O3)cc1	-14.5% [at 8 µM] (inactive)

Here is another compound to look at.
The compound O=C(C[C@@H]1C=C[C@@H](NC(=O)Cc2cccnc2)[C@H](CO)O1)Nc1ccccc1 showed max activity equal to -12.6% (inactive)

###

# protocol details: inhibitors of Clostridioides difficile proliferation – 4-point retest, confirmation (AID 1224921);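 further: plate controls were DMSO wells for no effect and levofloxacin 16 µg/mL wells for full effect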
# run parameters: Clostridioides difficile clinical isolate growth, OD600, 24 h, stronger effect = lower value; at 30 µM unless noted
Among all 1,400 compounds or so, about 350 (25%) were called active. Not shown: some 2% with an inconclusive outcome. A selection follows. Potency and affinity values are given separately.
Assignment: determine reported max activity for the given molecules.

given smiles	quantity measured	measured value
Cc1ccc(S(=O)(=O)Nc2ccc3c(c2)C(=O)N([C@@H](C)CO)C[C@H](C)[C@@H](CN(C)Cc2ccc(Cl)c(Cl)c2)OCCCC[C@@H](C)O3)cc1	max activity	8.85% (inactive)
C[C@@H]1CN([C@H](C)CO)C(=O)c2cc(NC(=O)Nc3ccc4c(c3)OCO4)ccc2O[C@H]1CN(C)Cc1ccccc1	max activity	22.6% (inactive)
C[C@@H]1CN([C@@H](C)CO)C(=O)c2cc(NC(=O)Nc3ccc(F)cc3)ccc2O[C@@H](C)CCCCO[C@H]1CN(C)Cc1ccc2c(c1)OCO2	max activity	20.9% (inactive)
CO[C@H]1CN(C)C(=O)c2ccc(NC(=O)Nc3ccccc3)cc2OC[C@@H](C)NC[C@H]1C	max activity	-11.9% (inactive)
C[C@H](CO)N1C[C@H](C)[C@H](CN(C)C)Oc2cc(C#CCC3CCCC3)ccc2S1(=O)=O	max activity	37% (inactive)
C[C@H](CO)N1C[C@H](C)[C@@H](CN(C)Cc2ccc3c(c2)OCO3)OCCCC[C@H](C)Oc2ccc(NC(=O)Nc3ccc4c(c3)OCO4)cc2C1=O	max activity	12.4% (inactive)
COc1ccc(CN(C)C[C@H]2OCCCC[C@@H](C)Oc3ccc(NC(=O)Nc4ccc5c(c4)OCO5)cc3C(=O)N([C@H](C)CO)C[C@H]2C)cc1	max activity	17.6% (inactive)
C[C@@H]1CN([C@H](C)CO)C(=O)c2cccc(NC(=O)Nc3ccc(C(F)(F)F)cc3)c2O[C@H]1CN(C)C(=O)NC1CCCCC1	max activity	34.6% (inactive)

Could you tell me max activity for each of these molecules? They are listed below.
1. CCCC#Cc1ccc2c(c1)O[C@@H](CN(C)Cc1ccncc1)[C@H](C)CN([C@@H](C)CO)S2(=O)=O
2. C[C@H](CO)N1C[C@H](C)[C@@H](CN(C)Cc2cccnc2)Oc2cc(C#CC3CC3)ccc2S1(=O)=O

1: -9.09% [at 1.95 µM] (inactive); 2: 21.4% (inactive)
